# maps each entry to its IC50 or EC50 (potency, activation or inhibition)
- Test system: LXRα and/or LXRβ
- EXPERIMENTAL DETAILS: Co-transfection assay (LXRE luciferase reporter, CV-1 cells)
- Type: cell-based, human
- MEASUREMENT CONDITIONS: tested as described in Example 33; IC50 or EC50 for LXRα and/or LXRβ, isoform not specified; read-out: activity (IC50 or EC50 for LXR)

Study these solved cases before continuing.
compound="CC(=O)c1cn(-c2ccc(-c3cccc(S(C)(=O)=O)c3)cc2)c(-c2c(Cl)cccc2Cl)n1 [Example 69]" assay_target="LXRα and/or LXRβ" assay_result="< 1 µM"
compound="Cc1cc(-c2cccc(S(C)(=O)=O)c2)ccc1-n1cc(C(=O)NCC(F)(F)F)nc1-c1c(Cl)cccc1Cl [Example 85]" assay_target="LXRα and/or LXRβ" assay_result="< 1 µM"
compound="CC(C)(O)c1cn(-c2ccc(-c3cccc(NC(=O)c4ccc5c(c4)OCO5)c3)cc2)c(-c2ccccc2Cl)n1 [Example 391]" assay_target="LXRα and/or LXRβ" assay_result="1 to 10 µM"

# context switch: different compound, same IC50 or EC50 (potency, activation or inhibition)
-- ask IC50 or EC50 (potency, activation or inhibition) for Cc1cc(-c2cccc(S(C)(=O)=O)c2)cc(Cl)c1-n1cc(C(C)(C)O)nc1-c1ccccc1Cl [Example 168] ?
-- reply 1 to 10 µM

----------
- System: LXRα and/or LXRβ
- EXPERIMENTAL DETAILS: Co-transfection assay (LXRE luciferase reporter, CV-1 cells)
- Type: cell-based, human
- MEASUREMENT CONDITIONS: tested as described in Example 33; IC50 or EC50 for LXRα and/or LXRβ, isoform not specified; read-out: activity (IC50 or EC50 for LXR)
ASSAY ENDPOINT: IC50 or EC50 (potency, activation or inhibition)

Study these solved cases before continuing.
substance_smiles=CC(C)(O)c1cn(-c2ccc(-c3cccc(S(C)(=O)=O)c3)cc2Cl)c(-c2ccccc2C(F)(F)F)n1 assay_result="< 1 µM"
substance_smiles=CCS(=O)(=O)c1cccc(-c2ccc(-n3cc(C(C)(C)O)nc3-c3cccc(Cl)c3C)c(F)c2)c1 assay_result="< 1 µM"
substance_smiles=CC(C)(O)c1cn(-c2ccc(-c3cccc(S(C)(=O)=O)c3)cc2F)c(-c2cccc(F)c2Cl)n1 assay_result="< 1 µM"

-- ask IC50 or EC50 (potency, activation or inhibition) for "CCOC(=O)c1cn(-c2ccc(-c3cccc(S(C)(=O)=O)c3)cc2)c(-c2ccccc2C(F)(F)F)n1" ?
-- reply < 1 µM

-- ask IC50 or EC50 (potency, activation or inhibition) for "CCS(=O)(=O)c1cccc(-c2ccc(-n3cc(C(C)(C)O)nc3-c3c(Cl)cccc3Cl)c(C)c2)c1" ?
-- reply < 1 µM

-- ask IC50 or EC50 (potency, activation or inhibition) for "CC(C)(O)c1cn(-c2ccc(-c3ccc(CO)c(S(C)(=O)=O)c3)cc2F)c(-c2c(F)cccc2Cl)n1" ?
-- reply 1 to 10 µM

-- ask IC50 or EC50 (potency, activation or inhibition) for "CC(C)(O)c1ccc(-c2ccc(-n3cc(C(C)(C)O)nc3-c3cccc(Cl)c3Cl)cc2)cc1" ?
-- reply 1 to 10 µM

----------
# maps each entry to its IC50 or EC50 (potency, activation or inhibition)
- Test system: LXRα and/or LXRβ
- EXPERIMENTAL DETAILS: Co-transfection assay (LXRE luciferase reporter, CV-1 cells)
- Format: cell-based, human
- MEASUREMENT CONDITIONS: tested as described in Example 33; IC50 or EC50 for LXRα and/or LXRβ, isoform not specified; read-out: activity (IC50 or EC50 for LXR)

Study these solved cases before continuing.
substance_smiles=COc1ccc(-c2ccc(-n3cc(C(C)(C)O)nc3-c3ccccc3C(F)(F)F)cc2)cc1S(C)(=O)=O assay_result="1000 to 10000 nM"
substance_smiles=C/C(=N\O)c1cn(-c2ccc(-c3cccc(S(C)(=O)=O)c3)cc2)c(-c2ccccc2C(F)(F)F)n1 assay_result="< 1000 nM"

# context switch: different compound, same IC50 or EC50 (potency, activation or inhibition)
-- ask Identify the measured IC50 or EC50 (potency, activation or inhibition) of "CC(C)(O)c1cn(-c2c(Cl)cccc2Cl)c(-c2ccc(-c3cccc(S(C)(=O)=O)c3)cc2)n1" for LXRα and/or LXRβ.
-- reply < 1000 nM

----------
- Test system: LXRα and/or LXRβ
- EXPERIMENTAL DETAILS: Co-transfection assay (LXRE luciferase reporter, CV-1 cells)
- Format: cell-based, human
- MEASUREMENT CONDITIONS: tested as described in Example 33; IC50 or EC50 for LXRα and/or LXRβ, isoform not specified; read-out: activity (IC50 or EC50 for LXR)
ASSAY ENDPOINT: IC50 or EC50 (potency, activation or inhibition)

Study these solved cases before continuing.
substance_smiles=CCS(=O)(=O)c1cccc(-c2ccc(-n3cc(C(C)(C)O)nc3-c3c(F)cccc3Cl)c(F)c2)c1 assay_result="< 1 µM"
substance_smiles=NS(=O)(=O)c1cccc(-c2ccc(-c3[nH]c(C(F)(F)F)nc3-c3ccccc3Cl)cc2)c1 assay_result="1 to 10 µM"
substance_smiles=CCC(O)(CC)c1cn(-c2ccc(-c3cccc(S(C)(=O)=O)c3)cc2)c(-c2c(Cl)cccc2Cl)n1 assay_result="< 1 µM"

-- ask IC50 or EC50 (potency, activation or inhibition) for "CCOC(=O)c1cc(-c2ccc(-n3cc(C(C)(C)O)nc3-c3ccccc3C(F)(F)F)cc2)cc(S(C)(=O)=O)c1" ?
-- reply 1 to 10 µM

-- ask IC50 or EC50 (potency, activation or inhibition) for "CCS(=O)(=O)c1cccc(-c2ccc(-n3cc(C(C)(C)O)nc3-c3ccccc3C(F)(F)F)cc2)c1" ?
-- reply < 1 µM

-- ask IC50 or EC50 (potency, activation or inhibition) for "CC(C)(O)c1cn(-c2ccc(-c3cccc(S(C)(=O)=O)c3)cc2F)c(-c2ccccc2C(F)(F)F)n1" ?
-- reply < 1 µM

-- ask IC50 or EC50 (potency, activation or inhibition) for "CC(C)(O)c1cn(-c2ccc(-c3cccc(S(C)(=O)=O)c3)cn2)c(-c2ccccc2C(F)(F)F)n1" ?
-- reply 1 to 10 µM

-- ask IC50 or EC50 (potency, activation or inhibition) for "CC(C)(O)c1cn(-c2c(Cl)cccc2Cl)c(-c2ccc(-c3cccc(S(C)(=O)=O)c3)cc2Cl)n1" ?
-- reply < 1 µM

-- ask IC50 or EC50 (potency, activation or inhibition) for "C/C(=N\O)c1cn(-c2ccc(-c3cccc(S(C)(=O)=O)c3)cc2)c(-c2c(Cl)cccc2Cl)n1" ?
-- reply < 1 µM

-- ask IC50 or EC50 (potency, activation or inhibition) for "CCS(=O)(=O)c1cccc(-c2ccc(-n3cc(C(C)(C)O)nc3-c3cccc4ccccc34)c(Cl)c2)c1" ?
-- reply < 1 µM

-- ask IC50 or EC50 (potency, activation or inhibition) for "CC(C)(O)c1cn(-c2ccc(-c3ccc(CO)c(S(C)(=O)=O)c3)cc2F)c(-c2cccc(F)c2Cl)n1" ?
-- reply < 1 µM

----------
- Tested on: LXRα and/or LXRβ
- EXPERIMENTAL DETAILS: Co-transfection assay (LXRE luciferase reporter, CV-1 cells)
- Format: cell-based, human
- MEASUREMENT CONDITIONS: tested as described in Example 33; IC50 or EC50 for LXRα and/or LXRβ, isoform not specified; read-out: activity (IC50 or EC50 for LXR)
ASSAY ENDPOINT: IC50 or EC50 (potency, activation or inhibition)

substance_smiles=CCS(=O)(=O)c1cccc(-c2ccc(-n3cc(C(=O)NCC(F)(F)F)nc3-c3c(Cl)cccc3Cl)c(C)c2)c1 assay_target="LXRα and/or LXRβ" assay_result="< 1 µM"

-- ask Identify the measured IC50 or EC50 (potency, activation or inhibition) of "CC(C)(O)c1cn(-c2ccc(-c3cccc(S(C)(=O)=O)c3)c(F)c2)c(-c2ccccc2Cl)n1" for LXRα and/or LXRβ.
-- reply 1 to 10 µM

-- ask Identify the measured IC50 or EC50 (potency, activation or inhibition) of "CC(C)(O)c1cn(-c2ccc(-c3cccc(S(C)(=O)=O)c3)cc2)c(-c2ccccc2F)n1" for LXRα and/or LXRβ.
-- reply 1 to 10 µM

----------
# maps each entry to its IC50 or EC50 (potency, activation or inhibition)
- System: LXRα and/or LXRβ
- EXPERIMENTAL DETAILS: Co-transfection assay (LXRE luciferase reporter, CV-1 cells)
- Assay type: cell-based, human
- MEASUREMENT CONDITIONS: tested as described in Example 33; IC50 or EC50 for LXRα and/or LXRβ, isoform not specified; read-out: activity (IC50 or EC50 for LXR)

substance_smiles=CC(C)(C)NC(=O)c1cn(-c2ccc(-c3cccc(S(C)(=O)=O)c3)cc2Cl)c(-c2c(Cl)cccc2Cl)n1 assay_target="LXRα and/or LXRβ" assay_result="< 1000 nM"
substance_smiles=Cc1c(Cl)cccc1-c1nc(C(C)(C)O)cn1-c1ccc(-c2ccc(CO)c(S(C)(=O)=O)c2)cc1 assay_target="LXRα and/or LXRβ" assay_result="< 1000 nM"
substance_smiles=CNS(=O)(=O)c1cccc(-c2ccc(-n3cc(C(C)(C)O)nc3-c3ccccc3C(F)(F)F)cc2)c1 assay_target="LXRα and/or LXRβ" assay_result="< 1000 nM"
substance_smiles=CC(C)(O)c1cn(-c2ccc(-c3cccc(S(C)(=O)=O)c3)cc2F)c(-c2c(F)cccc2Cl)n1 assay_target="LXRα and/or LXRβ" assay_result="< 1000 nM"
substance_smiles=CC(C)(O)c1cn(-c2ccc(-c3cccc(S(C)(=O)=O)c3)cc2Cl)c(-c2ccccc2Cl)n1 assay_target="LXRα and/or LXRβ" assay_result="< 1000 nM"

-- ask IC50 or EC50 (potency, activation or inhibition) for "CCS(=O)(=O)c1cccc(-c2ccc(-c3nc(C(C)(C)O)cn3-c3ccccc3C(C)C)c(C)c2)c1" ?
-- reply < 1000 nM

-- ask IC50 or EC50 (potency, activation or inhibition) for "CCOC(=O)c1cn(-c2ccc(Br)cc2)c(-c2ccccc2Cl)n1" ?
-- reply 1000 to 10000 nM

-- ask IC50 or EC50 (potency, activation or inhibition) for "COC(=O)c1cccc(-c2ccc(-n3cc(C(C)(C)O)nc3-c3ccccc3Cl)cc2)c1" ?
-- reply 1000 to 10000 nM

-- ask IC50 or EC50 (potency, activation or inhibition) for "COc1ccc(-c2ccc(-n3cc(C(C)(C)O)nc3Cc3cccc(Cl)c3Cl)c(C)c2)cc1S(C)(=O)=O" ?
-- reply < 1000 nM

-- ask IC50 or EC50 (potency, activation or inhibition) for "CCc1ccccc1-c1nc(C(C)(C)O)cn1-c1ccc(-c2cccc(S(C)(=O)=O)c2)cc1" ?
-- reply < 1000 nM

-- ask IC50 or EC50 (potency, activation or inhibition) for "CC(C)(O)c1cn(-c2ccc(-c3cccc(S(C)(=O)=O)c3)cc2Cl)c(-c2nccc3ccccc23)n1" ?
-- reply < 1000 nM

-- ask IC50 or EC50 (potency, activation or inhibition) for "CC(C)(O)c1cn(-c2ccc(-c3cc(S(C)(=O)=O)ccc3Cl)cc2)c(-c2c(Cl)cccc2Cl)n1" ?
-- reply < 1000 nM

-- ask IC50 or EC50 (potency, activation or inhibition) for "CCc1cc(-c2cccc(S(C)(=O)=O)c2)ccc1-n1cc(C(C)(C)O)nc1-c1ccccc1Cl" ?
-- reply < 1000 nM

-- ask IC50 or EC50 (potency, activation or inhibition) for "Cc1cc(-c2ccc(CO)c(S(C)(=O)=O)c2)ccc1-n1cc(C(C)(C)O)nc1-c1c(Cl)cccc1Cl" ?
-- reply < 1000 nM

-- ask IC50 or EC50 (potency, activation or inhibition) for "CC(C)(O)c1cn(-c2ccc(-c3ccc(CO)c(S(C)(=O)=O)c3)cc2)c(-c2c(Cl)cccc2Cl)n1" ?
-- reply < 1000 nM

-- ask IC50 or EC50 (potency, activation or inhibition) for "CCS(=O)(=O)c1cccc(-c2ccc(-n3cc(C(=O)NCCO)nc3-c3c(Cl)cccc3Cl)c(Cl)c2)c1" ?
-- reply < 1000 nM

-- ask IC50 or EC50 (potency, activation or inhibition) for "CC(C)(O)c1cn(-c2ccc(-c3ccc(CO)c(S(C)(=O)=O)c3)cc2)c(-c2cccc(Cl)c2Cl)n1" ?
-- reply < 1000 nM

-- ask IC50 or EC50 (potency, activation or inhibition) for "CC(C)(O)c1cn(-c2ccc(-c3ccc(CO)c(S(C)(=O)=O)c3)cc2)c(-c2c(F)cccc2F)n1" ?
-- reply 1000 to 10000 nM

-- ask IC50 or EC50 (potency, activation or inhibition) for "Cc1cccc(Cl)c1-c1nc(C(C)(C)O)cn1-c1ccc(-c2cccc(S(C)(=O)=O)c2)cc1" ?
-- reply < 1000 nM

-- ask IC50 or EC50 (potency, activation or inhibition) for "CC(C)(O)c1cn(-c2ccc(-c3cccc(S(C)(=O)=O)c3)cc2)c(-c2cccc(Cl)c2)n1" ?
-- reply < 1000 nM

-- ask IC50 or EC50 (potency, activation or inhibition) for "CCS(=O)(=O)c1cccc(-c2ccc(-n3cc(C(C)(C)O)nc3-c3cccc(F)c3Cl)c(Cl)c2)c1" ?
-- reply < 1000 nM

-- ask IC50 or EC50 (potency, activation or inhibition) for "CC(=O)c1cn(-c2ccc(-c3cccc(S(C)(=O)=O)c3)cc2)c(-c2ccccc2F)n1" ?
-- reply 1000 to 10000 nM

-- ask IC50 or EC50 (potency, activation or inhibition) for "CC(C)(O)c1cn(-c2ccc(-c3ccc(CO)c(S(C)(=O)=O)c3)cc2)c(-c2c(F)cccc2Cl)n1" ?
-- reply 1000 to 10000 nM

-- ask IC50 or EC50 (potency, activation or inhibition) for "CC(C)(O)c1cn(-c2ccc(-c3cccc(S(C)(=O)=O)c3)cc2)c(-c2ccccc2Cl)n1" ?
-- reply < 1000 nM
